# targetUnderTest: LPA1 receptor (Homo sapiens (Human), UniProt Q92633)
# Sequence (Q92633 whole entry): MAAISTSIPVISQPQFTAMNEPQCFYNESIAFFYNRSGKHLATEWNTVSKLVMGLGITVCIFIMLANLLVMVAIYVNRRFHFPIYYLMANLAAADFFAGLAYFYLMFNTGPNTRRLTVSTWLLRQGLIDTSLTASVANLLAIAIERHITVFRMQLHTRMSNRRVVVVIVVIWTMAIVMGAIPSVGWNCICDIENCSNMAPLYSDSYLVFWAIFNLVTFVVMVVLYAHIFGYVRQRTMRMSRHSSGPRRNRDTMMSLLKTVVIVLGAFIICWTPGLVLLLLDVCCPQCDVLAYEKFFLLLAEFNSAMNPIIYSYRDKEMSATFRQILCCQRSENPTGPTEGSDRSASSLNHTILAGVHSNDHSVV
# assay: LPA-mediated Ca2+ mobilization, LPA1 RH7777 cells
# Type: cell-based
# measurementContext: IC50 of compound in presence of EC50 concentration of LPA 18:1; read-out: EC50 or IC50 (μM), LPA1 RH7777
endpointLabel: IC50 (µM)

INSERT INTO measurements (mol, targetundertest, endpointlabel, unittext, readoutnumber) VALUES
  ('O=C(Nc1cc(Cl)c(F)c(Cl)c1)c1cc(S(=O)(=O)N2CCOCC2)c(Cl)cc1Cl', 'LPA1 receptor (Homo sapiens (Human), UniProt Q92633)', 'IC50', 'µM', 11.9);

A = O=C(Nc1cc(F)c(F)c(F)c1)c1cc(S(=O)(=O)N2CCOCC2)c(Cl)cc1Cl
B = O=C(Nc1cc(F)c(Cl)c(F)c1)c1cc(S(=O)(=O)N2CCOCC2)c(Cl)cc1Cl
Identify the entry with the smaller IC50: A or B . Kindly state the label of the option you pick.
B
(B: 3.96 µM, A: 9.1 µM)
